Origin of the recorded values: PubChem BioAssay AID623911

# assayed_target: G protein-activated inward rectifier potassium channel 2 (Homo sapiens) + G protein-activated inward rectifier potassium channel 1 (Homo sapiens) (UniProt P48051+P48549)
# Sequence (P48051 whole entry, looked up): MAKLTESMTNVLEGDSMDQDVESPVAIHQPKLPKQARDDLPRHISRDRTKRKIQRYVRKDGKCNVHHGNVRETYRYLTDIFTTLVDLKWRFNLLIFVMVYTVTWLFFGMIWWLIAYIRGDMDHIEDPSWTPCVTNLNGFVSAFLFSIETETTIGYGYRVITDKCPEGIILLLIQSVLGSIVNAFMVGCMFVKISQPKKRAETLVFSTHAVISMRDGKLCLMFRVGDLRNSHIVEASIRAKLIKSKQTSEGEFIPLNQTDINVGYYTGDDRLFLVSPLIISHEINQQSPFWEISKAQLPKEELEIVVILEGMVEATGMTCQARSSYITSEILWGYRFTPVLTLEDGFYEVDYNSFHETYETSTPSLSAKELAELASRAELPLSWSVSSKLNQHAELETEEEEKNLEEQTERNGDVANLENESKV
# Sequence (P48549 whole entry, looked up): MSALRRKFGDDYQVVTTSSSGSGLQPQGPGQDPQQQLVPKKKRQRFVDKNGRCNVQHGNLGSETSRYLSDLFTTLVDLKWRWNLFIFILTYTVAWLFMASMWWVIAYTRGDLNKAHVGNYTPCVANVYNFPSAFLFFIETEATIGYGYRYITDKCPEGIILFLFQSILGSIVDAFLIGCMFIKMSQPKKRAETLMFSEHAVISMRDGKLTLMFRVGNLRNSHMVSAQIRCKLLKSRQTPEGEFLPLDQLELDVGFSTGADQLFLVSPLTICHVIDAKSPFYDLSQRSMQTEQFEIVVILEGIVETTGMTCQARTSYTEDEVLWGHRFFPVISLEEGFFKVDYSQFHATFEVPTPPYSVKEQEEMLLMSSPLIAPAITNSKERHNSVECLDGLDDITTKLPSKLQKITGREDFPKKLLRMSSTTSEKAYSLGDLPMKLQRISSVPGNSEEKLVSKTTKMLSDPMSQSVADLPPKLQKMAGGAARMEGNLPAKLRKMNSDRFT
# protocol_description: GIRK1/2 thallium flux modulators, retest, confirmation, cell-based, HEK293 rmGlu8/hGIRK1/2, FluoZin-2 (AID 623911)
# experimental_setup: HEK293 rmGlu8/hGIRK1/2, thallium flux FluoZin-2; actives lie on both sides; glutamate co-added at its EC20 level
The campaign covered roughly 2,100 compounds. About 770 (37%) were called active.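 How the source made its calls: active means by-eye trace score of 1 for enhancers or -1 for inhibitors, so actives lie on both sides (some results past the limit were not filed as active); inactive means score 0, or 3 fluorescent, or 4 baseline rise.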 This is one part of the list.
Just give me one of these, please: 1 for active, 0 for inactive

Worked examples follow.
>>> label_class("CCCOC(=S)NC(=O)c1sc2ccccc2c1Cl")
1
>>> label_class("CCOC(=O)C1=C(C)NC2=C(C(=O)C(C(=O)OCC)C(c3ccccc3OC)C2)C1c1ccccn1 (stereo not drawn)")
0
>>> label_class("CC(C)Oc1cccc(C(=O)NC(=S)Nc2ccccc2)c1")
0
>>> label_class("O=C(NC(=S)N(CCCCO)C1CCCCC1)c1sc2ccccc2c1Cl")
1
>>> label_class("O=C(NC(=S)NC1CCCCCC1)c1cncc(Br)c1")
0
>>> label_class("CCN(CC)c1ccc2c(c1)OC(N)=C(C#N)C2c1cccnc1 (stereo not drawn)")
0

Hi, do you know how O=C(NC(=S)Nc1ccccc1Cl)c1csnn1 came out in this test?
1

Each compound tested received a call. Report the one for Cc1ccc(-c2csc3ncnc(N4CCN(C(=O)c5ccccc5)CC4)c23)cc1 .
1

Recorded test call requested for Cc1ccc(-n2nnnc2-c2nc3ccccc3s2)cc1
0

Hey, what did the test say about O=C(NC(=S)Nc1cc(C(F)(F)F)ccc1Cl)c1ccccc1 ?
0

Please share the test call associated with CCc1cccc(NC(=O)NC2CCCCC2)c1 .
0

Check the results log: what was the call for CC1(C)NC(=O)NC2(C)NC(=O)NC(C)(C)C12 (stereo not drawn) ?
0

Entry O=C(NCc1cccs1)c1cccnc1C(=O)O : call = ?
0

What did the test return for Cc1ccc(Nc2n[nH]c(C)c2[N+](=O)[O-])cc1C ?
0

// outcome(item) with item = O=C(c1cc2nc(-c3ccccc3)cc(-c3ccccc3)n2n1)N1CCN(C(=O)c2ccco2)CC1
0

---

Please provide measured manual score for the entries that follow.
# assayed_target: G protein-activated inward rectifier potassium channel 2 (Homo sapiens) + G protein-activated inward rectifier potassium channel 1 (Homo sapiens) (UniProt P48051+P48549)
# protocol_description: GIRK1/2 thallium flux modulators, retest, confirmation, cell-based, HEK293 rmGlu8/hGIRK1/2, FluoZin-2 (AID 623911)
# experimental_setup: HEK293 rmGlu8/hGIRK1/2, thallium flux FluoZin-2; actives lie on both sides; glutamate co-added at its EC20 level
The campaign covered roughly 2,100 compounds. About 770 (37%) were called active. Some of the results follow.
Answers are plain numbers.

Examples from the recorded data:
>>> measurement("Cc1nc2ccc(NS(=O)(=O)c3ccc4c(c3)OCCO4)cc2s1")
0
>>> measurement("CC(C)Sc1oc(-c2ccco2)nc1S(=O)(=O)c1ccccc1")
-1
>>> measurement("CCOC(=O)c1c(NC(=O)CSc2nnc(Cc3csc(N)n3)n2C)sc(C)c1C")
-1
>>> measurement("Nc1nc(Nc2ccccc2)nc(NCc2ccco2)c1[N+](=O)[O-]")
0
>>> measurement("CCOC(=O)c1sc2ncnc(NCc3ccco3)c2c1C")
1

Please examine the following record next.
// lookup manual score for CCOC(=O)c1cnc(SCC(=O)Nc2nc(C)c(C)s2)nc1N
0

---

Assign manual score to each entry below.
# assayed_target: G protein-activated inward rectifier potassium channel 2 (Homo sapiens) + G protein-activated inward rectifier potassium channel 1 (Homo sapiens) (UniProt P48051+P48549)
# protocol_description: GIRK1/2 thallium flux modulators, retest, confirmation, cell-based, HEK293 rmGlu8/hGIRK1/2, FluoZin-2 (AID 623911)
# experimental_setup: HEK293 rmGlu8/hGIRK1/2, thallium flux FluoZin-2; actives lie on both sides; glutamate co-added at its EC20 level
In all, about 2,100 compounds went through this assay and about 770 (37%) were called active. Some of the results follow.
One number for each entry.

>>> measurement("CCOC(=O)c1cc(-c2ccc(Cl)cc2)nc2c1c(C)nn2CCC#N")
0

For each of the items listed, what is its manual score?
1. S=c1[nH]nc(-c2cc3ccccc3o2)n1Cc1ccccc1
2. COc1ccc(/C=C/C(=O)c2cc(Br)ccc(=O)c2O)cc1
3. O=C(/C=C/c1ccccc1)c1cc(Br)ccc(=O)c1O
4. N#CCCn1nc(-c2ccc(Cl)cc2)cc1Nc1ccccc1NC(=O)C(F)(F)F
5. COc1cccc(N2CCN(c3c4c(nc5ncnn35)CCC4)CC2)c1

[0.5, 1, 1, 1, 0]

Please supply manual score for each of the following items, keeping them in order.
1. CC(C)c1nc(N2CCN(C(=O)c3ccccc3)CC2)c(C#N)c2c1COC(C)(C)C2
2. S=c1[nH]nc(-c2ccc(Br)o2)n1Cc1ccccc1
3. N/C(=N\OC(=O)Cc1ccccc1)c1ccc(Br)cc1
4. Cc1cccc(/C=c2\s/c(=C\C(=O)C(C)(C)C)[nH]c2=O)c1
5. Cc1cccc(NC(=O)COc2ccc(Br)cc2/C=N/O)c1

1. -1
2. 1
3. 0
4. 0
5. 0

---

# assayed_target: G protein-activated inward rectifier potassium channel 2 (Homo sapiens) + G protein-activated inward rectifier potassium channel 1 (Homo sapiens) (UniProt P48051+P48549)
# protocol_description: GIRK1/2 thallium flux modulators, retest, confirmation, cell-based, HEK293 rmGlu8/hGIRK1/2, FluoZin-2 (AID 623911)
# experimental_setup: HEK293 rmGlu8/hGIRK1/2, thallium flux FluoZin-2; actives lie on both sides; glutamate co-added at its EC20 level
Screen size: about 2,100 compounds; about 770 (37%) were called active. Some of the results follow.
Field: manual score. Provide a value for each of the molecules that follow.
Answers are plain numbers.

Before answering, review these 10 worked examples.
>>> measurement("Cc1ccc(C(=O)CC(=O)c2cc(Cl)ccc2O)cc1")
0
>>> measurement("CCNC(=S)N/N=C1\\CCCCc2ccccc21")
4
>>> measurement("O=C(CSc1nc(-c2ccccc2)cc(=O)[nH]1)N1CCc2ccccc21")
0
>>> measurement("O=C(NNc1nc2ccccc2nc1C(F)(F)F)c1ccccc1")
1
>>> measurement("CNC(=S)N/N=C1\\C(=O)c2cccc3cccc1c23")
1
>>> measurement("O=S(=O)(Cc1ccccc1)N1CCc2ccccc21")
3
>>> measurement("Cc1nc(/N=C(\\N)NC(=O)c2ccccc2)nc2ccccc12")
0
>>> measurement("Oc1[nH]c2ccccc2c1N=NC(=S)NCCc1ccccc1")
0
>>> measurement("CC1(C)CC(=O)C2=C(C1)NC(SCC(=O)Nc1ccccc1)=C(C#N)C2c1ccco1 (stereo not drawn)")
0
>>> measurement("Oc1[nH]c2ccccc2c1N=Nc1nc2ccccc2s1")
1

Dear reader, for each entry below, please note its manual score.
1. CN1C(=O)C2(C(C#N)=C(N)N(c3cc(Cl)cc(Cl)c3)C3=C2C(=O)CCC3)c2ccccc21 (stereo not drawn)
2. Cc1ccc(C(=O)NNc2nc3ccccc3nc2C(F)(F)F)cc1
3. COc1ccccc1OCC(O)Cn1c(=N)n(Cc2ccccc2)c2ccccc21 (stereo not drawn)
4. Cc1ccc(OCC(O)Cn2c(=N)n(Cc3ccccc3)c3ccccc32)cc1 (stereo not drawn)
5. Cc1ccc(C(=O)CC(=O)COc2ccc(Cl)cc2)cc1
6. Cc1ccc(C(=O)CC(=O)COc2ccc(Cl)cc2C)cc1
7. O=C(NCCSc1c[nH]c2ccccc12)c1ccco1

0
1
-1
-1
0
1
0

Provide reported manual score for each item, in the same order as listed.
1. Cc1ccc(C(=O)N/N=C/C2=Cc3ccccc3OC2C)cc1 (stereo not drawn)
2. Cc1ccc(C(=O)NC2(C(F)(F)F)N=C3SCCN3C2=O)cc1 (stereo not drawn)

1: 0; 2: 0

I would be grateful if you could provide manual score for each of the following entries.
1. CC(C)OC(=O)CC12CN3CN(C1)CC(CC(=O)OC(C)C)(C3)C2=O
2. C=CCN1C(=O)/C(=C2/Sc3ccccc3N2C)SC1=Nc1c(C)n[nH]c1C
3. CCCCNC(=S)N/N=C1\C(=O)c2cccc3cccc1c23
4. O=C(CSCc1ccccc1)N=Nc1c(O)[nH]c2ccccc12

1: 0; 2: 0; 3: 0; 4: 0

---

# assayed_target: G protein-activated inward rectifier potassium channel 2 (Homo sapiens) + G protein-activated inward rectifier potassium channel 1 (Homo sapiens) (UniProt P48051+P48549)
# protocol_description: GIRK1/2 thallium flux modulators, retest, confirmation, cell-based, HEK293 rmGlu8/hGIRK1/2, FluoZin-2 (AID 623911)
# experimental_setup: HEK293 rmGlu8/hGIRK1/2, thallium flux FluoZin-2; actives lie on both sides; glutamate co-added at its EC20 level
Hit rate of the full screen: of about 2,100 compounds, about 770 (37%) were called active. The list shows a part of the results.
Consider the following compounds; for each one, report its manual score.
Give bare numbers.

Solved entries (count: 5):
>>> measurement("C=CCn1c(O)c(N=NC(=O)OC(C)(C)C)c2ccccc21")
1
>>> measurement("N#CC(C#N)=C1C=C2C=C(N3CCCCCC3)CCC2CC1 (centres undefined)")
3
>>> measurement("COC(=O)CSC1=NS(=O)(=O)c2ccccc21")
-1
>>> measurement("COc1ccc(NC(=O)CSc2nnc(-c3ccccn3)n2Cc2ccco2)cc1OC")
0
>>> measurement("CC(=O)Nc1ccc(NC(=O)CSc2nccn2Cc2ccccc2)cc1")
0

Each of the following entries comes with a recorded value; kindly state manual score for each.
1. CCOC(=O)C(C(=O)OCC)c1cc(Br)c2noc3c2c1C(=O)c1ccccc1-3
2. CN(c1ccccc1)S(=O)(=O)c1ccc(NC(=S)NC(=O)c2ccccc2)cc1
3. CCCCNC(=S)N=Nc1c(O)n(Cc2ccccc2)c2ccccc12

1. 3
2. 0
3. 0

List the reported manual score of each compound below.
1. CCN(CC)c1ccc2cc(-c3nc4ccccc4[nH]3)c(=O)oc2c1
2. CC1CN(C2CC(C)(C)NC(C)(C)C2)CCC1=O (centres undefined)
3. Oc1cccc(Nc2nc(NCC3CCCO3)c3ccccc3n2)c1 (centres undefined)
4. CC1CCCCC1n1c(=S)[nH]c2ccccc2c1=O (centres undefined)

1. 3
2. 0
3. -1
4. 1
